Tested on: HepG2 cells
Assay: Measurement of gluconeogenesis inhibitory ability
Assay type: cell-based
Settings: Homo sapiens, HepG2, 24 h, 100 μM compound, 24 hours, HepG2 cells; content of glucose formed from 14C-lactate; lower value = stronger inhibition; read-out: Gluconeogenesis inhibition (100 μM) aver.
Description: 2 mM metformin was used as a comparative compound for each of the plates (control group). HepG2 cells (ATCC: American Type Culture Collection) were cultured in 10% serum-containing high glucose media, transferred to no serum-containing low glucose media (DMEM (Gibco), FBS (Gibco)), and then treated with 100 μM of each of the compounds for 24 hours. […] Then, the cells were neutralized with 1N HCl, and the content of glucose formed in the cells was measured with a liquid scintillation counter. […]
Reported values of activity at 100 µM for individual entries
Enter your answer as a number in %; do not include the unit.

# example entries with known answers
INSERT INTO measurements (compound, measurement_label, reported_value) VALUES
  ('Cc1ccc(CN=C(NCc2ccc3c(c2)OCO3)NC(=N)N)cc1.Cl [Example 11, hydrochloride]', 'activity at 100 µM', 1.81),
  ('Cl.N=C(N)NC(=Nc1ccccc1)NCc1ccc2c(c1)OCO2 [Example 45, hydrochloride]', 'activity at 100 µM', 117),
  ('Cl.N=C(N)NC(=Nc1ccc(Br)cc1)NCc1ccc2c(c1)OCO2 [Example 32, hydrochloride]', 'activity at 100 µM', 4.42);

Turning now to a further record.
Item: COc1ccc(CN=C(NCc2ccc3c(c2)OCO3)NC(=N)N)cc1.Cl [Example 37, hydrochloride] | System: HepG2 cells | activity at 100 µM: 104

----------
Tested on: HepG2 cells
Assay: Measurement of triglyceride synthesis inhibitory ability
Type: cell-based
Conditions: 500 μM compound, 24 hours, HepG2 cells; content of triglyceride formed; lower value = stronger inhibition
Experimental: 2 mM metformin was used as a comparative compound for each of the plates (control group). HepG2 cells (ATCC: American Type Culture Collection) were cultured in 1% serum-containing media (DMEM (Gibco), FBS (Gibco)) for 24 hours, and then treated with 100 μM or 500 μM of each of the compounds prepared in Examples for 24 hours. […] After completion of the reaction, the content of triglyceride formed in the cell lysates was measured at a wavelength of 560/590 nm (ex/em) using a fluorescence microscope. […]
Where a name gives a salt, the structure may show the parent alone.
Reported values of Triglyceride (500 μM) aver. for individual entries
Write the value as a bare number.

INSERT INTO assay_data (molecule, reported_value) VALUES
  ('COc1cc(N=C(NCc2ccc3c(c2)OCO3)NC(=N)N)cc(OC)c1.Cl [Example 26]', 21.88),
  ('N=C(N)NC(=Nc1cccc2ccccc12)NCc1ccc2c(c1)OCO2 [Example 3, hydrochloride]', '−6.97'),
  ('Cl.N=C(N)NC(=Nc1ccc(Oc2ccccc2)cc1)NCc1ccc2c(c1)OCO2 [Example 30]', 3.05),
  ('N=C(N)NC(=NCCc1ccccc1)NCc1ccc2c(c1)OCO2 [Example 7, hydrochloride]', 11.8),
  ('CCc1cc(Cl)ccc1NC(=N)NC(=N)NCc1ccc2c(c1)OCO2.Cl [Example 8]', 19.3),
  ('Cl.N=C(N)NC(=NCc1ccc(Br)cc1)NCc1ccc2c(c1)OCO2 [Example 36]', 24.04),
  ('Cl.N=C(N)NC(=NCc1ccc(F)cc1)NCc1ccc2c(c1)OCO2 [Example 43]', 63.67),
  ('COCCOCCOCCN=C(NCc1ccc2c(c1)OCO2)NC(=N)N.Cl [Example 46]', 93.41),
  ('CCCCCCN=C(NCc1ccc2c(c1)OCO2)NC(=N)N.Cl [Example 6]', 70.3),
  ('CC(C)(C)c1ccc(N=C(NCc2ccc3c(c2)OCO3)NC(=N)N)cc1.Cl [Example 33]', 7.08);

GET /value?item= Cl.N=C(N)NC(=NCc1ccc(F)c(F)c1)NCc1ccc2c(c1)OCO2 [Example 44] &field=Triglyceride (500 μM) aver. returns 56.79

GET /value?item= Cc1cccc(N=C(NCc2ccc3c(c2)OCO3)NC(=N)N)c1.Cl [Example 42] &field=Triglyceride (500 μM) aver. returns 36.78

GET /value?item= Cl.N=C(N)NC(=Nc1cccc(Br)c1)NCc1ccc2c(c1)OCO2 [Example 41] &field=Triglyceride (500 μM) aver. returns 19.79

GET /value?item= CC(C)(C)CC(C)(C)N=C(NCc1ccc2c(c1)OCO2)NC(=N)N.Cl [Example 9] &field=Triglyceride (500 μM) aver. returns −1.23

GET /value?item= CN=C(NCc1ccc2c(c1)OCO2)NC(=N)N.Cl [Example 17] &field=Triglyceride (500 μM) aver. returns 53.45

GET /value?item= Cl.N=C(N)NC(=NC1CCCCC1)NCc1ccc2c(c1)OCO2 [Example 2] &field=Triglyceride (500 μM) aver. returns 26.9

GET /value?item= Cl.N=C(NCc1ccc2c(c1)OCO2)NC(=N)Nc1ccc(-c2ccccc2)cc1 [Example 35] &field=Triglyceride (500 μM) aver. returns 14.13

Ref: patent US8642647B2
